Biological target: T1, RXFP1 receptor (UniProt Q9HBX9 1-757, limits assumed)
T1 sequence (looked up): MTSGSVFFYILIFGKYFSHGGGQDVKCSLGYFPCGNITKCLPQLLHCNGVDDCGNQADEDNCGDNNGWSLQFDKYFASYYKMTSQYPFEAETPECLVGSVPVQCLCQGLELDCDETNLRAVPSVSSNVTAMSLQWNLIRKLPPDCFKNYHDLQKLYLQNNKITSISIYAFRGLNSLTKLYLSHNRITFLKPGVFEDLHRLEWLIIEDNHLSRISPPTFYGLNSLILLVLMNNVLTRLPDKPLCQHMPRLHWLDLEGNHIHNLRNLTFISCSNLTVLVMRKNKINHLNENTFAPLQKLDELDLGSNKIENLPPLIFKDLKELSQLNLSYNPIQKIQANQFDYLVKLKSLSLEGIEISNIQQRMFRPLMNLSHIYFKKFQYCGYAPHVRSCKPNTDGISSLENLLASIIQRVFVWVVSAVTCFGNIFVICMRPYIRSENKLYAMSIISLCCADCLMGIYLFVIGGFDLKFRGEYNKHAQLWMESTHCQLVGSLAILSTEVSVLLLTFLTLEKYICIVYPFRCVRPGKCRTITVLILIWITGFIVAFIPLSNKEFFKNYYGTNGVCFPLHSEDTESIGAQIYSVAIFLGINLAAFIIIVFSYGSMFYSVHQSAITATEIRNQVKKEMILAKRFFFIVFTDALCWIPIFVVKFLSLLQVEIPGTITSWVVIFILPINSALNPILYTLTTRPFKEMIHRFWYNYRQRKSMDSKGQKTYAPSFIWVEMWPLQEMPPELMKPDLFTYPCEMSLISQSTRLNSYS
Test: cell-based or functional assay
*1 amine or outer side, *2 acyl side, *3 side chain or, on linkers, in order; H or OH if unused. Primed or numbered codes have the meaning given here. Side-chain parts run from the residue outwards. [ ]: non-standard residue; d: D form. The star is where a group is joined. PEG12 = NCCOCCOCCOCCOCCOCCOCCOCCOCCOCCOCCOCCOCCC(=O)O; γGlu = O=C(O)[C@H](CCC(=O)[*:2])N[*:1]; Stearoyl = CCCCCCCCCCCCCCCCCC(=O)*; Palmitoyl = CCCCCCCCCCCCCCCC(=O)*; αMeK = C[C@](N)(CCCCN)C(=O)O; Lauroyl = CCCCCCCCCCCC(=O)*; Nle = CCCC[C@H](N)C(=O)O; PEG2′ = PEG2 spacer unit; PEG2″ = not defined here; Aib = CC(C)(N)C(=O)O
property-measured: EC50 (nM), OVCAR 5 cells (cAMP)
Write down the numeric answer in nM and omit the unit.

Req: I would be grateful if you could share the reported EC50 (nM), OVCAR 5 cells (cAMP) for Ac-LEGREKVRAK(Ac)I[Aib][Aib]EG[Nle]STWS[Aib]RKK(Ac)[PEG2′][PEG2′][PEG2′][PEG2′][γGlu][γGlu]K([γGlu-Palmitoyl])-NH2 [peptide of SEQ ID NO: 116] .
Resp: 1

Req: I would be grateful if you could share the reported EC50 (nM), OVCAR 5 cells (cAMP) for Ac-LEGREKVRAK(Ac)I[Aib][Aib]EG[Nle]STWS[Aib]RKK(Ac)K([PEG2′-PEG2′-PEG2′-PEG2′-γGlu-γGlu-γGlu-γGlu-Palmitoyl])-NH2 [peptide of SEQ ID NO: 130] .
Resp: 0.3

Req: I would be grateful if you could share the reported EC50 (nM), OVCAR 5 cells (cAMP) for Ac-LEGREKVRAK(Ac)I[Aib][Aib]EG[Nle]STWXKRKK(Ac)[PEG12]K([γGlu-γGlu-γGlu-γGlu-Stearoyl])-NH2 (not fully specified (some residues); printed as Ac-L-E-G-R-E-K-V-R-A-K(Ac)-I-Aib-Aib-E-G-Nle-S-T-W-Mse-K-R-K-K(Ac)-PEG12-K(gE-gE-gE-gE-Stea)-NH2) [peptide of SEQ ID NO: 39] .
Resp: 0.03

Req: I would be grateful if you could share the reported EC50 (nM), OVCAR 5 cells (cAMP) for Ac-LEGREKVRAK(Ac)I[Aib][Aib]EG[Nle]STFS[αMeK]RKK(Ac)[PEG2″][PEG2″][PEG2″][PEG2″][γGlu][γGlu]K([γGlu-γGlu-Palmitoyl])-NH2 [peptide of SEQ ID NO: 159] .
Resp: 0.02

Req: I would be grateful if you could share the reported EC50 (nM), OVCAR 5 cells (cAMP) for Ac-LEGREKVRAK(Ac)I[Aib][Aib]EG[Nle]STFSXAAK(Ac)[PEG2′][PEG2′][PEG2′][PEG2′][γGlu][γGlu][γGlu]K([γGlu-Palmitoyl])-NH2 (not fully specified (some residues); printed as Ac-L-E-G-R-E-K-V-R-A-K(Ac)-I-Aib-Aib-E-G-Nle-S-T-F-S-Mly-A-A-K(Ac)-PEG2-PEG2-PEG2-PEG2-gE-gE-gE-K(gE-Palm)-NH2) [peptide of SEQ ID NO: 139] .
Resp: 0.3

Req: I would be grateful if you could share the reported EC50 (nM), OVCAR 5 cells (cAMP) for Ac-LEGREKVRAK(Ac)I[Aib][Aib]EGQSTYS[Aib]RKK(Ac)[PEG2′][PEG2′][PEG2′]K([γGlu-γGlu-γGlu-Palmitoyl])-NH2 [peptide of SEQ ID NO: 179] .
Resp: 19.9

Req: I would be grateful if you could share the reported EC50 (nM), OVCAR 5 cells (cAMP) for Ac-LEGREKVRAK(Ac)I[Aib][Aib]EG[Nle]STWS[Aib]RKK(Ac)K([PEG2′-PEG2′-PEG2′-γGlu-γGlu-γGlu-Lauroyl])-NH2 [peptide of SEQ ID NO: 120] .
Resp: 110

Data origin, for the record: patent US20190233493A1
